The origin of these recorded values is the antibiotic and cytotoxicity screens of Wong et al. (2023).

System: HSkMC (human skeletal muscle cells)
Test: cytotoxicity call (relative viability < 0.9)
Conditions: 10 µM
Screen size: about 39,000 compounds; about 1,500 (3.8%) were called active. What follows is part of a selection rich in actives, with near analogues and random picks from the rest.
In this exercise, the only acceptable responses are 1.0 (active), 0.0 (inactive)

What is the recorded call for this compound in the test? C[C@@H]1CCCCO[C@@H](CN(C)Cc2ccc(Cl)c(Cl)c2)[C@H](C)CN([C@H](C)CO)C(=O)c2cc(NC(=O)Cc3ccccc3)ccc2O1
1.0

Test call, this compound: C[C@H](CO)N1C[C@H](C)[C@@H](CN(C)CC2CCCCC2)OCCCC[C@H](C)Oc2ccc(NC(=O)Nc3cccc4ccccc34)cc2C1=O
0.0

Field: outcome | Entry: C[C@H](CO)N1C[C@H](C)[C@H](CN(C)CC2CCCCC2)Oc2c(NC(=O)c3nc4ccccc4s3)cccc2C1=O
0.0

Each compound tested received a call. Report the one for COc1ccc(NC(=O)Nc2ccc3c(c2)C(=O)N([C@H](C)CO)C[C@H](C)[C@H](CN(C)S(=O)(=O)c2cn(C)cn2)O3)cc1 .
0.0

I would be grateful if you could indicate the recorded call for C[C@@H]1CCCCO[C@@H](CN(C)Cc2ccc(Cl)c(Cl)c2)[C@@H](C)CN([C@@H](C)CO)C(=O)c2cc(NC(=O)Cc3ccccc3)ccc2O1 .
0.0

Recorded test outcome, item CCN1C(=O)CN(CC(=O)O)C1=O
0.0

For this compound, state the assay outcome: C[C@@H]1CN([C@H](C)CO)C(=O)c2cc(NC(=O)Cc3ccccc3)ccc2O[C@@H](C)CCCCO[C@H]1CN(C)Cc1ccc(Cl)c(Cl)c1
1.0

Please indicate how the test categorized C[C@@H]1CN([C@H](C)CO)C(=O)c2cc(NC(=O)Cc3ccccc3)ccc2O[C@@H](C)CCCCO[C@@H]1CN(C)Cc1ccc(Cl)c(Cl)c1 .
0.0

Which outcome did this test record for the compound C[C@@H]1CN([C@H](C)CO)C(=O)c2cc(-c3cccc(C#N)c3)cnc2O[C@H]1CN(C)C(=O)c1cnccn1 ?
0.0
